Give pest or weed control at 400 µg/mL for every item shown.
test system: cucumber downy mildew; assay: protectant activity in vivo against cucumber downy mildew; conditions: Cucumis sativus, 168 h, read-out: control effect against cucumber downy mildew (%), 400 mg/L; protectant activity

Below are some compounds; for each one, tell me its pest or weed control at 400 µg/mL.
1. CCc1ncnc(NCc2ccc(Oc3ccc(C(F)(F)F)cn3)cc2)c1Cl [CK42, reference compound]
2. FC(F)(F)c1ccc(Oc2ccc(CCNc3ncnc4ccccc34)cc2)cc1 [CK11, reference compound]

1. 100%
2. 85%

* * *

system: carmine spider mite; assay: bioactivity test against carmine spider mite, airbrush spray; format: in vivo; conditions: Tetranychus cinnabarinus, 72 h, 600 mg/L; contrastive test; read-out: Insecticidal activity against carmine spider mite (% )
metric: pest or weed control at 600 µg/mL (%)
Answers are plain numbers, in %.

Before answering, review these 3 worked examples.
1. CCc1ncnc(OCCc2ccc(OCc3ccccc3)cc2)c1Cl [CK14, reference compound]; 100
2. CCc1ncnc(NC(C)c2ccc(Oc3ncc(C(F)(F)F)cc3Cl)cc2)c1Cl (stereo not shown) [CK39, reference compound]; 100
3. CCC(Nc1ncnc(C)c1Cl)c1ccc(OC(F)F)cc1 (stereo not shown) [diflumetorim, reference compound]; 100

# context switch: different molecule, same pest or weed control at 600 µg/mL
Reported pest or weed control at 600 µg/mL, molecule CC(Cl)c1ncnc(NCCc2ccc(Oc3ncc(Cl)cc3Cl)cc2)c1Cl (stereo not shown) [CK45, reference compound] : ____
0

* * *

Give Insecticidal activity against diamond back moth (%) for every item shown.
Tested on: Diamond back moth
Assay: insecticidal activity against diamond back moth, airbrush spray
Type: in vivo
Details: 600 mg/L
Procedure: Compounds were dissolved in mixed solvent (acetone:methanol=1:1), and diluted to required concentration with water containing 0.1% of tween 80. Diamond back moth, armyworm, peach aphid and carmine spider mite were used as targets and the method of spraying by airbrush was used for determination of insecticidal biassays. The method of spraying by airbrush: The cabbage leaves were made into plates of 2 cm diameter by use of punch. […] Scores were conducted and mortalities were calculated after 72 hrs.
One number for each entry, in %.

Before answering, review these 5 worked examples.
1. CCc1ncnc(NCCc2ccc(Oc3ccc(C)cc3)nc2)c1Cl; 100
2. CCc1ncnc(NCCc2ccc(Oc3ccc(C#N)cc3F)cc2)c1Cl; 100
3. CCc1ncnc(NC(C)c2ccc(Oc3ccc(C(C)(C)C)cc3)nc2)c1Cl (stereo not drawn) [CK10, reference compound]; 33
4. FC(F)c1ncnc(NCCc2ccc(Oc3ccc(Cl)cc3)nc2)c1Cl; 100
5. CC(Cl)c1ncnc(NCCc2ccc(Oc3ncc(C(F)(F)F)cc3Cl)cc2)c1Cl (stereo not drawn) [CK44, reference compound]; 80

Below are some compounds; for each one, tell me its Insecticidal activity against diamond back moth (%).
1. Cc1ncnc(NCCc2ccc(Oc3ccc(C(F)(F)F)cn3)cc2)c1Cl
2. Cc1ncnc(NCc2ccc(Oc3ncc(C(F)(F)F)cc3Cl)cc2)c1Cl [CK32, reference compound]

1. 100
2. 0

Below are some compounds; for each one, tell me its Insecticidal activity against diamond back moth (%).
1. CCc1ncnc(NC(C)c2ccc(Oc3ccc(F)cc3)nc2)c1Cl (stereo not drawn) [CK9, reference compound]
2. CCc1ncnc(NC(C)c2ccc(Oc3ccccc3)nc2)c1Cl (stereo not drawn) [CK8, reference compound]

1. 100
2. 33
